B1: MYL5 (parent)
chain: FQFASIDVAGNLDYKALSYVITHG

Variants of: B1
experimental-protocol: protein stability index of a GFP-peptide fusion (GPS, HEK-293T) (PSI 1-6); higher = more stable;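 also: lentivirally expressed fusions sorted by FACS into six bins by GFP to DsRed ratio, PSI derived from sequencing read proportions per bin multiplied by bin number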
particulars: c terminus: a fixed tail appended
// False strictly below 2 in protein stability index; True otherwise

Examples from the recorded data:
INSERT INTO assay_data (chain_sequence, answer_label) VALUES
  ('FQFASIDVAGNLPYKALSYVITHG', 'True'),
  ('FQFASIDVAGNLDYKALSYVITRG', 'True'),
  ('FQFFSIDVAGNLDYKALSYVITHG', 'True'),
  ('FNFASIDVAGNLDYKALSYVITHG', 'True'),
  ('FQFASIDVAGNLDYKALKYVITHG', 'False');

query: hey, is protein stability index for this one >= 2? FQFASIDVAGNLDYKALSYVITLG
result: True

query: hey, is protein stability index for this one >= 2? FQCASIDVAGNLDYKALSYVITHG
result: True

query: hey, is protein stability index for this one >= 2? FQFASIDVAGNLDYKALSYVITEG
result: True

query: hey, is protein stability index for this one >= 2? WQFASIDVAGNLDYKALSYVITHG
result: True

query: hey, is protein stability index for this one >= 2? FQFASIDVAVNLDYKALSYVITHG
result: True

query: hey, is protein stability index for this one >= 2? FQFASIKVAGNLDYKALSYVITHG
result: True

query: hey, is protein stability index for this one >= 2? FQFASIDVAGNLDYKALSYVIHHG
result: True

query: hey, is protein stability index for this one >= 2? FQFASIDVAWNLDYKALSYVITHG
result: False

query: hey, is protein stability index for this one >= 2? FQFASIDVAGNLDYKALSYVETHG
result: True

query: hey, is protein stability index for this one >= 2? FQFASIDVAGNLDYKALSYVITQG
result: True

query: hey, is protein stability index for this one >= 2? FQFAVIDVAGNLDYKALSYVITHG
result: True

Attribution: the supplement of paper PMC10567573
